# Lookup of reported IC50 keyed by entry
system tested: MsEH (Mus musculus, UniProt P34914)
Sequence (P34914 1-554): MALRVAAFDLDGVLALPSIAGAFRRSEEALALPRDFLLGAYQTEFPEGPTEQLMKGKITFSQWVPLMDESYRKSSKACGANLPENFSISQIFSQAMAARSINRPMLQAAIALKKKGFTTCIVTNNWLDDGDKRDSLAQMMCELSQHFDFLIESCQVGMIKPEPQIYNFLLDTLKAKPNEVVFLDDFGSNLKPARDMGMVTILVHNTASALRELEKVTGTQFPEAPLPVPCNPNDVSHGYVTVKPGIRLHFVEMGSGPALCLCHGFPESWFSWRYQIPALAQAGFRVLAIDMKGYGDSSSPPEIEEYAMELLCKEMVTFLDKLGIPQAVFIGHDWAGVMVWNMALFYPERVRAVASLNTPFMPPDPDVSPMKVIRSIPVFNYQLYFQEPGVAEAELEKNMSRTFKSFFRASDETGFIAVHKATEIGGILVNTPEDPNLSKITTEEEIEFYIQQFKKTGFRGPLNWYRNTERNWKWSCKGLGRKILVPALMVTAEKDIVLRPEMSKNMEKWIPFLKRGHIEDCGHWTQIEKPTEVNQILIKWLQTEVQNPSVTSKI
experimental details: sEH inhibitory activity, PHOME fluorescence assay (MsEH)
Type: biochemical
run conditions: PHOME substrate 50 μM, sEH 400 ng/ml, 37° C., 10 min, fluorescence 330/465 nm; read-out: MsEH IC50 (nM) Inhibitory activity against MsEH
Description: Detection principle: a specific substrate, (3-phenyl-oxy)-acetic acid cyano-(6-methoxy-naphthalen-2-yl)methyl ester, namely PHOME, is non-fluorescent but can be hydrolyzed under the action of sEH enzyme to generate a product 6-methoxy-2-naphthaldehyde. The 6-methoxy-2-naphthaldehyde can emit fluorescence with a wavelength of 465 nm under 330 nm light wave excitation, and an intensity of the detected fluorescence signal is inversely proportional to an inhibitory effect on the sEH enzyme. […]
I only need the number, in nM, no unit after it.

Would you please look over these solved cases?
- compound: "CC12CC3CC(C)(C1)CC(NC(=O)Nc1ccc(C(=O)N4CCC(C(=O)NC(CO)CO)CC4)cc1F)(C3)C2"
  system tested: "MsEH (Mus musculus, UniProt P34914)"
  unit tag: "nM"
  IC50: 0.55
- compound: "CCC(C)C(=O)N1CCC(CC(=O)N2CCCN(C(=O)c3ccc(NC(=O)NC45CC6CC(C)(CC(C)(C6)C4)C5)c(F)c3)CC2)CC1 (stereo not drawn)"
  system tested: "MsEH (Mus musculus, UniProt P34914)"
  unit tag: "nM"
  IC50: 0.35
- compound: "C[C@]12CC3CC(NC(=O)Nc4ccc(C(=O)NC5CCC(C(=O)N6CCN(CCO)CC6)CC5)cc4F)(C1)C[C@@](C)(C3)C2 (stereo partly drawn)"
  system tested: "MsEH (Mus musculus, UniProt P34914)"
  unit tag: "nM"
  IC50: 0.53
- compound: "CC(O)CNC(=O)[C@H]1CCCN(C(=O)c2ccc(NC(=O)NC34CC5C[C@@](C)(C3)C[C@](C)(C5)C4)c(F)c2)C1 (stereo partly drawn)"
  system tested: "MsEH (Mus musculus, UniProt P34914)"
  unit tag: "nM"
  IC50: 0.23
- compound: "C[C@]12CC3CC(NC(=O)Nc4ccc(C(=O)NC5CCC(C(=O)NC(CO)CO)CC5)cc4F)(C1)C[C@@](C)(C3)C2 (stereo partly drawn)"
  system tested: "MsEH (Mus musculus, UniProt P34914)"
  unit tag: "nM"
  IC50: 0.55

Please report the recorded IC50 for C[C@]12C[C@@H]3C[C@](C)(C1)C[C@@](NC(=O)Nc1ccc(CN4CCC[C@H](C(=O)O)C4)cc1F)(C3)C2 . 0.61

Cited source: patent US20260224548A1
